Target: Ephrin type-A receptor 2 (Homo sapiens);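 note: reported values are mean percent inhibition of EPHA2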
Details: at 0.1 µM
Each entry below carries its recorded inhibition.
Give a bare numeral; the unit % is implied.

These solved cases illustrate the format of a correct answer.
molecule="Nc1nccc(-c2c(-c3ccc(F)cc3)ncn2C2CCC(O)CC2)n1 (stereo not given)" assay_value=0.36
molecule=Fc1ccc(-c2ncn(C3CCNCC3)c2-c2ccnc(Oc3ccc4c(c3)OCO4)n2)cc1 assay_value=3.08
molecule=COc1cc2ncn(-c3cc(OCc4cccs4)c(C(N)=O)s3)c2cc1OC assay_value=-1.31

The molecule `O=C(Nc1n[nH]c2cc(-c3cc(F)ccc3F)ccc12)C1CC1` , tested on Ephrin type-A receptor 2 (Homo sapiens), showed inhibition of -2.28

Hey, Ephrin type-A receptor 2 (Homo sapiens) data for `COc1cc(C)c(N(C)C(=O)CN(C)C)cc1Nc1nc(Nc2cccc(F)c2C(N)=O)c2cc[nH]c2n1` : inhibition came out at -2.68

---

Biological target: Inhibitor of nuclear factor kappa-B kinase subunit epsilon (Homo sapiens);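 note: reported values are averaged percent inhibition figures against human IKKε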
Settings: at 1 µM
Below: a set of entries, each annotated with reported inhibition.
Form entry: value (%) — number only.

# annotated cases, reported inhibition shown
smiles_code=Cc1nnc(-c2ccc(C)c(-c3ccc(C(=O)NCc4ccc(Cl)cc4)cc3)c2)o1 assay_value=5.13
smiles_code=CCN(CC)Cc1ccc(Nc2nccc(-c3cnn4ncccc34)n2)cc1 assay_value=17.8
smiles_code=NCc1ccc(-n2c(-c3nonc3N)nc3cnccc32)cc1 assay_value=11.4
smiles_code=Cc1ccc(C(=O)NC(C)C)cc1-c1ccc(C(=O)NCC2CC2)cc1 assay_value=-4.16

Here is the next item to consider.
Note to self: inhibition recorded for `COc1cc(Nc2ncc3c(C)nc(-c4cccc(C(F)(F)F)c4)n3n2)cc(OC)c1OC` was 18.9

---

Form field: inhibition (one value per entry).
Target: Non-receptor tyrosine-protein kinase TNK1 (Homo sapiens) (UniProt Q13470);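 note: reported values are mean inhibition figures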
Sequence (Q13470 whole entry): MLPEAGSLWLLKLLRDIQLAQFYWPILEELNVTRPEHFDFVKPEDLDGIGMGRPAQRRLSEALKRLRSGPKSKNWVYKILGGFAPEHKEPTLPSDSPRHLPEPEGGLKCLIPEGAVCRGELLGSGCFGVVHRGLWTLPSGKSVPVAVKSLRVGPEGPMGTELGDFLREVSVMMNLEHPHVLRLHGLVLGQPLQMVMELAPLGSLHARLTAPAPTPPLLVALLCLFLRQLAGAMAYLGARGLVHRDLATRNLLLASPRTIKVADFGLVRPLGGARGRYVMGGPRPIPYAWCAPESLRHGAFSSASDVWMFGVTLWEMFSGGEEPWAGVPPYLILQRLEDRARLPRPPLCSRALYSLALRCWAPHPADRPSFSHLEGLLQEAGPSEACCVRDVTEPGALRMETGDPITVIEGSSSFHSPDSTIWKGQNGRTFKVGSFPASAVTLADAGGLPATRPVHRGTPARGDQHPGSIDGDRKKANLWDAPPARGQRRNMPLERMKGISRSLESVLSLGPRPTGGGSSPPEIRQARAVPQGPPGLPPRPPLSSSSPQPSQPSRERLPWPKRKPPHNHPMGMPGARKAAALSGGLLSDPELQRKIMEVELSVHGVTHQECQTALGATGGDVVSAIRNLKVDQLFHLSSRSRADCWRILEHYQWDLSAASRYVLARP
Settings: at 0.1 µM
Give the number; % is assumed, so skip it.

Answered cases to consult:
smiles_code=CCN(CC)Cc1ccc(Nc2nccc(-c3cnn4ncccc34)n2)cc1 readout_units=% assay_value=5.27
smiles_code=COc1cc(Nc2ncc3c(C)nc(-c4cccc(Oc5ccccc5)c4)n3n2)cc(OC)c1OC readout_units=% assay_value=4.56
smiles_code=NC(=O)c1ccc(Oc2nccc(-c3c(-c4ccc(F)cc4)ncn3C3CCNCC3)n2)cc1 readout_units=% assay_value=4.4

Case `Fc1ccc(-c2ncn(C3CCNCC3)c2-c2ccnc(Oc3ccc(F)c(F)c3)n2)cc1` , Non-receptor tyrosine-protein kinase TNK1 (Homo sapiens) (UniProt Q13470), inhibition recorded as 0.22

Here `O=C1NC(=O)C(c2cccc(Cl)c2)=C1Nc1ccc(Cl)c(C(=O)O)c1` was tested on Non-receptor tyrosine-protein kinase TNK1 (Homo sapiens) (UniProt Q13470), and its inhibition came to 0.16

Record `Fc1ccc(-c2nc3n(c2-c2ccncc2)CCS3)cc1` ; system Non-receptor tyrosine-protein kinase TNK1 (Homo sapiens) (UniProt Q13470); inhibition = 1.24

---

Molecular target: Aurora kinase C (Homo sapiens) (UniProt Q9UQB9)
Sequence (Q9UQB9 whole entry): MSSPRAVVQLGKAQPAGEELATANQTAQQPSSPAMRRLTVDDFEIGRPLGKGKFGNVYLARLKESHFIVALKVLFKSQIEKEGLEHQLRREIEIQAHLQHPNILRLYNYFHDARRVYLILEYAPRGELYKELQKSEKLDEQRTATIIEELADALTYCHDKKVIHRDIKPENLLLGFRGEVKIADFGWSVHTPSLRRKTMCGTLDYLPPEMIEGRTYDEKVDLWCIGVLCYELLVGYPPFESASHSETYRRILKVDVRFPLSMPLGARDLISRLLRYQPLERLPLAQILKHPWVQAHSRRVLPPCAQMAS
Conditions: at 0.1 µM
Reported Endpoint: inhibition

compound=COC(=O)Nc1nc2ccc(Sc3ccc(NC(=O)Nc4cc(C(F)(F)F)ccc4F)cc3)cc2[nH]1 assay_value=1.09%
compound=O=C1NC(=O)C(c2cccc(Cl)c2)=C1Nc1ccc(Cl)c(C(=O)O)c1 assay_value=5.84%
compound=COc1cc2ncn(-c3cc(OCc4cccs4)c(C(N)=O)s3)c2cc1OC assay_value=-0.54%
compound=COc1ccc(-c2ccc3c(NC(=O)C4CC4)n[nH]c3n2)cc1 assay_value=-5.01%
compound=O=C(Nc1n[nH]c2nc(-c3ccco3)ccc12)C1CC1 assay_value=1.88%

inhibition of `Cc1ccc(NC(=O)c2ccoc2)cc1-c1ccc(C(=O)NCC2CC2)cc1` , assay on Aurora kinase C (Homo sapiens) (UniProt Q9UQB9), is 1.82%

The compound `Cc1ccc(C(=O)NC(C)C)cc1-c1ccc(C(=O)NCC2CC2)cc1` on Aurora kinase C (Homo sapiens) (UniProt Q9UQB9): inhibition was -0.96%

The value of inhibition recorded for Nc1nccc(-c2c(-c3ccc(F)cc3)ncn2C2CCC(O)CC2)n1 (stereo unspecified) when tested on Aurora kinase C (Homo sapiens) (UniProt Q9UQB9) reads -1.77%

Readout inhibition for `Fc1ccc(-c2nc3n(c2-c2ccncc2)CCS3)cc1` , test system Aurora kinase C (Homo sapiens) (UniProt Q9UQB9), was -1.97%

inhibition of `O=C(Nc1n[nH]c2cc(-c3cc(F)ccc3F)ccc12)C1CC1` , assay on Aurora kinase C (Homo sapiens) (UniProt Q9UQB9), is 0.12%

Let me check: `CN(C)CCOc1ccc(-c2cc(-c3ccc4c(c3)CCC4=NO)c(-c3ccncc3)o2)cc1` , system Aurora kinase C (Homo sapiens) (UniProt Q9UQB9), measured inhibition is 0.74%

Fill in: Aurora kinase C (Homo sapiens) (UniProt Q9UQB9) inhibition for `COc1cc(Nc2ncc(-c3ccccc3)o2)cc(OC)c1OC` = 8.67%

Value sought: inhibition, system Aurora kinase C (Homo sapiens) (UniProt Q9UQB9), item `N#Cc1ccc(Oc2nccc(-c3c(-c4ccc(F)cc4)ncn3C3CCNCC3)n2)cc1` . Result: 0.14%

# lookup: `COc1ccc(C2=C(N3CCc4ccccc43)C(=O)NC2=O)cc1` on Aurora kinase C (Homo sapiens) (UniProt Q9UQB9), inhibition = 1.68%

Item `CN(C)CCCNc1nccc(-c2c(-c3ccc(F)cc3)nn3cc(C(F)(F)F)ccc23)n1` ; assay system Aurora kinase C (Homo sapiens) (UniProt Q9UQB9); inhibition reported as -1.31%

Entry `CN(C)c1ccc2c(c1)/C(=C/Nc1ccc(S(N)(=O)=O)cc1)C(=O)N2` , Aurora kinase C (Homo sapiens) (UniProt Q9UQB9) data, inhibition value: 17.9%

Lab entry: Aurora kinase C (Homo sapiens) (UniProt Q9UQB9) assay, compound `O=C(Nc1n[nH]c2cc(-c3ccccc3)ccc12)C1CC1` , inhibition = 0.96%

The observed inhibition for `NC(=O)Cc1ccccc1Oc1nccc(-c2c(-c3ccc(F)cc3)ncn2C2CCNCC2)n1` when tested with Aurora kinase C (Homo sapiens) (UniProt Q9UQB9) stands at -0.43%

Field inhibition (Aurora kinase C (Homo sapiens) (UniProt Q9UQB9)), entry `CCS(=O)(=O)c1ccc(OC)c(Nc2ncc(-c3cccc(-c4ccccc4F)c3)o2)c1` : 0.45%

`COc1cccc(-n2cnc3c(N/N=C/c4ccncc4)ncnc32)c1` tested on Aurora kinase C (Homo sapiens) (UniProt Q9UQB9) gave inhibition: 0.73%

Form field, inhibition with Aurora kinase C (Homo sapiens) (UniProt Q9UQB9), item `O=C(NCC1CC1)c1ccc(-c2cccc(C(=O)NC3CC3)c2)cc1` : 0.57%
